# target-or-system: human LPA1 receptor (Homo sapiens (Human))
# test: Beta-arrestin recruitment assay to determine IC50 values for human LPAR1
# assay-conditions: antagonist mode, Tango EDG2-bla U2OS cells, LPA 18:1 500 nM final
measured-quantity: pIC50
When answering, recall that pIC50 equals minus log10 of the concentration in mol/L, and write that number alone.

1) Cc1ccc(NC(=O)C2(c3ccccc3C(C)C)CN(C(=O)N[C@H](C(=O)O)C(C)C)C2)c(OC(F)F)n1 [Ex 17-7] = 7.59
2) CCOC(=O)c1nccc(N2CC(C(=O)Nc3ccc(C)nc3OC(F)F)(c3ccccc3C(C)C)C2)n1 [Ex 18-10] = 6.92
3) Cc1ccc(NC(=O)C2(c3ccccc3C(C)C)CN(S(=O)(=O)CCC(=O)OCc3ccccc3)C2)c(OC(F)F)n1 [Ex 13-4] = 8.00

pIC50 measured on Cc1ccc(NC(=O)C2(c3ncccc3C(C)C)CN(c3nc(C)ncc3F)C2)c(OC(F)F)n1 [Ex 64] = 7.82

Sample CCOC(=O)C(C)(C)NC(=O)N1CC(C(=O)Nc2ccc(C)nc2OC(F)F)(c2ccccc2C(C)C)C1 [Ex 17-12] ; pIC50 observed: 7.96

The reported value for Cc1ccc(NC(=O)C2(c3ccccc3C3=CCCC3)CNC2)c(OC(F)F)n1 [Ex 26] in terms of pIC50 is 6.63

Noted for Cc1ccc(NC(=O)C2(c3ccccc3C(C)C)CN(C(=O)NCC3(C(=O)O)CC3)C2)c(OC(F)F)n1 [Ex 17-15] : its pIC50 reads 7.80

The recorded pIC50 for entry Cc1ccc(NC(=O)C2(c3ccccc3C(C)C)CCN(C(=O)CC(C)(C)C(=O)O)C2)c(OC(F)F)n1 (centres unmarked) [Ex 12-83] equals 7.62

* * *

# target-or-system: UniProtKB Q92633
# test: Beta-arrestin recruitment assay to determine IC50 values for human LPAR1
# assay-conditions: antagonist mode, Tango EDG2-bla U2OS cells, LPA 18:1 500 nM final
measured-quantity: pIC50
Hey, just a heads up that pIC50 is the negative log base 10 of the concentration in molar.

1. COc1cc(Br)cnc1NC(=O)C1(c2ccccc2C(C)C)CN(C(=O)CC(C)(C)C(=O)O)C1 = 6.98
2. COC(=O)c1cc(N2CC(C(=O)Nc3ccc(C)nc3OC(F)F)(c3ccccc3C(C)C)C2)ncn1 = 7.96
3. Cc1ccc(NC(=O)C2(c3ccccc3C3CCCCC3)CNC2)c(OC(F)F)n1 = 7.89
4. CC(C)c1cccnc1C1(C(=O)Nc2ncc(Cl)cc2OC(F)F)CNC1 = 5.99
5. Cc1ccc(NC(=O)C2(c3ccccc3C(C)C)CN(C(=O)NCC(C)(C)C(=O)O)C2)c(OC(F)F)n1 = 7.92
6. Cc1ccc(NC(=O)C2(c3ccccc3C(C)C)CN(C(=O)CNS(N)(=O)=O)C2)c(OC(F)F)n1 = 8.00
7. Cc1ccc(NC(=O)C2(c3ncccc3C(C)C)CN(C(=O)CCC(=O)O)C2)c(OC(F)F)n1 = 7.15

Sample Cc1ccc(NC(=O)C2(c3ccccc3C(C)C)CN(CCN(C)CC(=O)O)C2)c(OC(F)F)n1 , system: UniProtKB Q92633. Its pIC50 is 6.71

* * *

# target-or-system: human LPA1 receptor (Homo sapiens (Human), UniProt Q92633)
# Sequence (Q92633 whole entry): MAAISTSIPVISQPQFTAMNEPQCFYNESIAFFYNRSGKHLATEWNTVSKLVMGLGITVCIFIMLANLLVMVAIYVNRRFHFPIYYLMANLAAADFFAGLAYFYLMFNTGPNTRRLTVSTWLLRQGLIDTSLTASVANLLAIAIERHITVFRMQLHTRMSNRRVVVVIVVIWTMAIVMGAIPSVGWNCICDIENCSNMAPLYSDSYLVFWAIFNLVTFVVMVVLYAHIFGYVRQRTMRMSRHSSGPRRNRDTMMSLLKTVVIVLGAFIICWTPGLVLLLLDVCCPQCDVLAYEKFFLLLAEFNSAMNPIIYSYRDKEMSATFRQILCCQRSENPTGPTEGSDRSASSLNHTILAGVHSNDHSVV
# test: Beta-arrestin recruitment assay to determine IC50 values for human LPAR1
# assay-conditions: antagonist mode, Tango EDG2-bla U2OS cells, LPA 18:1 500 nM final
measured-quantity: log10 IC50 (log10 of the value in nM)
Hello, just confirming the data are log10 of IC50 with units of nM.

1. Cc1ccc(NC(=O)C2(c3ccccc3C(C)C)CN(C(=O)NCC(=O)O)C2)c(OC(F)F)n1 = 1.53
2. Cc1ccc(NC(=O)C2(c3ccccc3C(C)C)CCNCC2)c(OC(F)F)n1 = 0.90
3. Cc1ccc(NC(=O)C2(c3ccccc3C(C)C)CN(C(=O)CCC(=O)NS(C)(=O)=O)C2)c(OC(F)F)n1 = 1.54
4. Cc1cnc(NC(=O)C2(c3ccccc3C(C)C)CN(C(=O)CC3(C(=O)O)CCC3)C2)c(OC(F)F)c1 = 1.79
5. C=C(C)C(=O)OCCNC(=O)N1CCC(C(=O)Nc2ccc(C)nc2OC(F)F)(c2ccccc2C(C)C)CC1 = 0.70
6. COC(=O)C(C)(C)OC(=O)N1CC(C(=O)Nc2ccc(C)nc2OC(F)F)(c2ccccc2C(C)C)C1 = 2.16
7. Cc1ccc(NC(=O)C2(c3ccccc3C(C)C)CN(CCOCC(=O)O)C2)c(OC(F)F)n1 = 1.46

Below: the item to evaluate.
GET /value?item= COC(=O)CCC(=O)N1CC(C(=O)Nc2ccc(C)nc2OC)(c2ccccc2C(C)C)C1 &field=log10 IC50 returns 2.44
